{"columns": ["molecule", "glass transition temperature [°C]"],
 "data": [
  ["*CCN(CCOC(=O)c1cc(OC2CCN(c3ccc(S(=O)(=O)C(F)(F)C(F)(F)C(F)(F)C(F)(F)C(F)(F)C(F)(F)C(F)(F)C(F)(F)F)cc3)CC2)cc(C(=O)O*)c1)c1ccc(S(=O)(=O)C(F)(F)C(F)(F)C(F)(F)C(F)(F)C(F)(F)C(F)(F)C(F)(F)C(F)(F)F)cc1 (repeat unit)", 99.00],
  ["*ON(C(F)(F)F)C(F)(Br)C(*)(F)F (repeat unit)", 3.00],
  ["*C/C=C/C[Si](*)(CCCOc1ccccc1)c1ccccc1 (repeat unit)", -5.00]
]}
